From: ChEMBL document CHEMBL1124571

- assay-target: Sodium/potassium-transporting ATPase
- measurement-description: Compound is evaluated for inhibition of specific binding of [3H]ouabain to membranes from dog heart
observed-property: log10 of IC50 (log10 of the value in µM)
Note the log scale: values are log10 of IC50 expressed in µM.

[Q] Look up log10 of IC50 for this molecule: CC(=O)[C@H]1CC[C@@]2(C)[C@@H](CC[C@@H]3[C@@H]2CC[C@]2(C)[C@@H](C(C)=O)CC[C@@]32O)C1
[A] 1.30

[Q] Same question for C[C@H](O)[C@H]1CC[C@@]2(O)[C@@H]3CCC4C[C@@H](OC5CC(O)C(O)C(CO)O5)CC[C@]4(C)[C@H]3CC[C@]12C (stereo in doubt) please.
[A] -1.22

[Q] Same question for CC(O)[C@H]1CC[C@@]2(O)[C@@H]3CCC4C[C@@H](O)CC[C@]4(C)[C@H]3CC[C@]12C (stereo partly drawn) please.
[A] 0.78

[Q] Same question for CC(=O)[C@H]1CC[C@@]2(O)[C@@H]3CC[C@H]4CC(=O)CC[C@]4(C)[C@H]3CC[C@]12C please.
[A] 1.66

[Q] Same question for C[C@H](O)[C@H]1CC[C@@]2(O)[C@@H]3CCC4C[C@@H](OC5CC(O)C(O)C(CO)O5)CC[C@]4(C)[C@H]3CC[C@]12C (stereo in doubt; 5) please.
[A] -0.40

[Q] Same question for CC(=O)[C@H]1CC[C@@]2(O)[C@@H]3CC[C@H]4C[C@@H](O)CC[C@]4(C)[C@H]3CC[C@]12C please.
[A] 1.32

[Q] Same question for CC(=O)[C@@H]1CC[C@@]2(C)[C@@H](CC[C@@H]3[C@@H]2CC[C@]2(C)C([C@H](C)O)CC[C@@]32O)C1 (stereo partly drawn) please.
[A] 0.78
